Source listed as paper PMC9482650.

# assay-target: FRMPD2_1, Q68DX3
# Sequence (Q68DX3 770-861): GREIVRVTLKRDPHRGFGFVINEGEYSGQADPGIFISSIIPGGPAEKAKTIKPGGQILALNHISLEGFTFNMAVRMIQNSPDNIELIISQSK
# procedure-details: holdup assay
# Parameters: key: below the threshold = too weak to quantify, mostly under pKd 3.1 to 4
# protocol-conditions: plain residues with an end cap or a label only (N-terminal biotin on a linker: ahx)
quantity-measured: pKd

>>> print(df.to_string())
                        binder  quantity_measured  reported_measurement
0    QNTDDVQTSF [ACE2, Q9BYF1]                pKd   below the threshold
1  TQKFRASTAL [FRMPD1, Q5SYB0]                pKd                  3.77
2     TESNLQTSSC [CGN, Q9P2M7]                pKd   below the threshold
3  HTHSYIETHV [CNKSR2, Q8WXI2]                pKd   below the threshold
4   QDEKVKESYV [ABCA1, O95477]                pKd                  3.53

Please examine the following record next.
Per the records, this binder ( QPRTWLQSPV [RTKN, Q9BST9] ) has pKd equal to below the threshold
